The measured values listed here are drawn from patent US4228304A.

test description: Acute toxicity (mouse)
conditions: in vivo, ip, male mouse
readout name: LD50 at 504 h (mg/kg)
Write the number in mg/kg without appending the unit.

Sample CC(C)CCC[C@H]1CC[C@@](C)(C(=O)O)CC1 ; LD50 at 504 h observed: 1110

###

test description: Acute toxicity (mouse)
conditions: in vivo, sc, female mouse
readout name: LD50 at 504 h

Sample CC(C)CCC[C@H]1CC[C@@](C)(C(=O)O)CC1 ; LD50 at 504 h observed: > 10000 mg/kg

###

test description: Acute toxicity (rat)
conditions: in vivo, sc, male rat
readout name: LD50 at 504 h

Sample CC(C)CCC[C@H]1CC[C@@](C)(C(=O)O)CC1 ; LD50 at 504 h observed: > 10000 mg/kg

###

test description: Acute toxicity (rat)
conditions: in vivo, po, female rat
readout name: LD50 at 504 h

Sample CC(C)CCC[C@H]1CC[C@@](C)(C(=O)O)CC1 [Compound No. 1] ; LD50 at 504 h observed: > 10000 mg/kg

Sample CC(C)CCC[C@H]1CC[C@@](C)(C(=O)NCC(=O)O)CC1 [Compound No. 2] ; LD50 at 504 h observed: ~10300 mg/kg

###

test description: Acute toxicity (rabbit)
conditions: in vivo, po; female rabbit
readout name: LD50 at 504 h

Sample CC(C)CCC[C@H]1CC[C@@](C)(C(=O)O)CC1 ; LD50 at 504 h observed: > 6000 mg/kg

###

test description: Determination of surface tension
Assay type: physicochemical
conditions: 0.25% solution of the salt, Ring method, 25° C.
Counter-ions that a name gives are not always drawn.
readout name: Surface tension γ (dyn/cm)
Write the number in dyn/cm without appending the unit.

Sample CC(C)CCC[C@H]1CC[C@@](C)(C(=O)N[C@@H](CCC(=O)O)C(=O)O)CC1 [Compound No. 15 (monosodium salt)] ; Surface tension γ observed: 42.3

Sample CSCC[C@H](NC(=O)[C@]1(C)CC[C@H](CCCC(C)C)CC1)C(=O)O [Compound No. 17 (triethanolamine salt)] ; Surface tension γ observed: 42.3

Sample CC(C)CCC[C@H]1CC[C@H](C(=O)NCCCCCC(=O)O)CC1 [Compound No. 42 (sodium salt)] ; Surface tension γ observed: 38.8

Sample CCC(NC(=O)[C@]1(C)CC[C@H](CCCC(C)C)CC1)C(=O)O (some centres unmarked) [Compound No. 12 (potassium salt)] ; Surface tension γ observed: 44.5

Sample CC(C)CCC[C@H]1CC[C@@](C)(C(=O)NCC(=O)O)CC1 [Compound No. 2 (potassium salt)] ; Surface tension γ observed: 39.5

###

test description: Acute toxicity (rat)
conditions: in vivo, ip, male rat
readout name: LD50 at 504 h (mg/kg)
Write the number in mg/kg without appending the unit.

Sample CC(C)CCC[C@H]1CC[C@@](C)(C(=O)O)CC1 [Compound No. 1] ; LD50 at 504 h observed: 2070

###

test description: Acute toxicity (rat)
conditions: in vivo, po, male rat
I'd be grateful if you could share measured LD50 at 504 h for these entries.

Sample CC(C)CCC[C@H]1CC[C@@](C)(C(=O)NCC(=O)O)CC1 [Compound No. 2] ; LD50 at 504 h observed: ~11000 mg/kg

Sample CC(C)CCC[C@H]1CC[C@@](C)(C(=O)O)CC1 [Compound No. 1] ; LD50 at 504 h observed: > 10000 mg/kg
